- testedOn: human recombinant muscarinic receptor M-4 (Homo sapiens, UniProt P08173)
- Construct: expressed in transfected cells; host or cells: SF9 insect cells (membranes)
- Sequence (P08173 whole entry): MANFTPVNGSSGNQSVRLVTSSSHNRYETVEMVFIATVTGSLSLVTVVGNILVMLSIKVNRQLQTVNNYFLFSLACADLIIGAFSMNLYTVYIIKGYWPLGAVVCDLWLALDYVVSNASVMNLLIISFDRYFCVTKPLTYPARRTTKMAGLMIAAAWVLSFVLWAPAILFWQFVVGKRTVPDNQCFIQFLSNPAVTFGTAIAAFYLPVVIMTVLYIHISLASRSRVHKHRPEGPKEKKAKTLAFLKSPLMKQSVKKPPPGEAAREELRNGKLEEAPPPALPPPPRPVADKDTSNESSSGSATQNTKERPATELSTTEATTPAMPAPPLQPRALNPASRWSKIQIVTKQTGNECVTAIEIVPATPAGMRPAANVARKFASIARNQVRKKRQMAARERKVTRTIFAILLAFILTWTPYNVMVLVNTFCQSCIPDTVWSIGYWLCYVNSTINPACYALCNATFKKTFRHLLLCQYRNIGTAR
- Type: binding
assayEndpoint: Ki (nM)

>>> readoutnumber("O=C(O[C@H]1C[C@H]2CC[C@@H](C1)[N+]21CCCC1)C(O)(c1ccccc1)c1ccccc1")
1

###

- Test system: QTc interval of the ECG
- assayOverview: Cardiac side effects: QTc interval of the ECG in anesthetized guinea pigs
- runConditions: intravenous infusion over 30 min
Measured ΔQTc (%) of individual entries
assayEndpoint: ΔQTc (%)

>>> result("CCN(CC)CC#CCOC(=O)C(O)(c1ccccc1)C1CCCCC1 (stereo not shown)")
"+12 ± 2%"
>>> result("O=C(O[C@H]1C[C@H]2CC[C@@H](C1)[N+]21CCCC1)C(O)(c1ccccc1)c1ccccc1")
"−2 ± 1%"
>>> result("Cc1ccc(O)c([C@H](CCN(C(C)C)C(C)C)c2ccccc2)c1")
"+16 ± 1%"
>>> result("CC(CC(c1ccccc1)c1ccccc1)NC(C)(C)C (stereo not shown)")
"+11 ± 1%"
